Data credit: PubChem BioAssay (NCI)

# Test system: UACC-62 melanoma
# TEST DESCRIPTION: NCI tumour cell line growth inhibition, 48 h
MEASURED PROPERTY: TGI

COMPOUND | MEASURED PROPERTY | ENDPOINT VALUE
O=C(Nc1cc(Cl)ccc1O)c1ccc(Nc2ccnc(C(F)(F)F)c2)cc1 | TGI | 15.5 µM
NNCCc1ccc(NC(=O)CCCc2ccc(C(=O)Nc3ccccc3N)cc2)cc1 | TGI | 31.8 µM
CC(C)(C)c1ccc2c(c1)S(=O)(=O)Nc1ccc(Cl)cc1NS(=O)(=O)c1cc(C(C)(C)C)ccc1OCCOCCOCCO2 | TGI | > 100 µM
COc1cccc(/C=N/[N-]C(=O)c2ccncc2)c1[O-].COc1cccc(/C=N/[N-]C(=O)c2ccncc2)c1[O-].[O]=[U](=[O])([OH2+])[OH2+] | TGI | 19.4 µM
N[C@H](CCC(=O)N[C@@H](Cc1c[nH]c2ccccc12)C(=O)O)C(=O)O | TGI | > 100 µM
Nc1cc(Br)c(-c2nnc(CCC(=O)c3nc4ccccc4[nH]3)o2)c(Br)c1 | TGI | > 100 µM
CCCCCCCCCCNC(=O)CI | TGI | 3.28 µM
COc1ccc(C(=O)c2cc(OC)c(OC)c(OC)c2)cc1OC | TGI | > 100 µM
Cc1cn([C@@H]2C[C@H](CO)[C@@H](O)C2)c(=O)[nH]c1=O | TGI | > 100 µM
CCc1c[n+]([O-])c(C)cc1[N+](=O)[O-] | TGI | > 100 µM
N=C(N)c1ccc(-c2ccc(-c3cccs3)s2)cc1 | TGI | 3.18 µM
COc1ccc(-c2c3c([nH]c(=S)c2C#N)CC(C)(C)CC3=O)cc1 | TGI | > 100 µM
CC(=O)c1cccn1/C=C(\OC(=O)OC(C)(C)C)c1ccc[nH]1 | TGI | > 100 µM
O=C1NCC(NC(=O)C(F)(F)F)c2c(Br)sc(Br)c21 (configuration not stated) | TGI | > 100 µM
O=C1Sc2ccccc2C(=O)N2CSCC12 (configuration not stated) | TGI | > 100 µM
O=C(Cc1ccccc1)NN1C(=O)/C(=C\c2ccccc2)SC1=Nc1ccccc1 | TGI | > 100 µM
CC(=O)OCC1OC(n2cc(I)c(=O)[nH]c2=O)C(OC(C)=O)C(OC(C)=O)C1OC(C)=O (configuration not stated) | TGI | > 100 µM

====

# Tested on: NCI/ADR-RES ovarian
# TEST DESCRIPTION: NCI tumour cell line growth inhibition, 48 h

MOLECULE | TGI
COc1ccc(-c2nccn2-c2ccc(OC)cc2)cc1 | 49.4 µM
COC(=O)CCc1cc(OC)c2c(c1)[C@H](C(=O)OC)[C@@H](c1ccc(O)c(OC)c1)O2 | > 100 µM
Cc1ccc(OCCn2cc(Nc3ccccc3)c(=O)n(CCOc3ccc(C)cc3)c2=O)cc1 | > 100 µM
CC[n+]1[b-](C(C)(C)C)n(/N=C/C(C)(C)C)[b-](C(C)(C)C)[n+]1CC | > 100 µM
CCC/C=C/C=C/C1CC(O)C(O)C(=O)C1CO (stereo not given) | > 100 µM

====

Listed below: TGI values for each entry.
# Tested on: NCI-H226 lung
# TEST DESCRIPTION: NCI tumour cell line growth inhibition, 48 h
MEASURED PROPERTY: TGI (µM)

COMPOUND | COMPARATIVE SIGN | ENDPOINT VALUE
CC(C)(C)[Si](C)(C)OC1[C@@H](CNC(=O)NC(=O)CCl)O[C@@H](n2cnc3c(N)ncnc32)[C@H]1O[Si](C)(C)C(C)(C)C (stereo not given in full) | = | 2
CCN(CC)CCCCCCNc1cccc2cc(Br)cnc12 | = | 27
CCOC(=O)c1c(-c2ccccc2)c(-c2ccccc2)cn1C | > | 10
Cc1ccccc1C1=[N+]([O-])c2ccc(Cl)cc2C1=O | = | 30.6
COC(C)(C)[C@@H](O)[C@H]1C[C@H](C)[C@@]2(CC[C@]3(C)[C@@H]2CC[C@@H]2[C@@]4(C)CC[C@@H](OC(C)=O)C(C)(C)[C@@H]4C[C@@H](OC4OC(COC(C)=O)C(O)C(O)C4O)[C@]23C)O1 (stereo not given in full) | = | 17.5

====

# Test system: SR leukemia
# TEST DESCRIPTION: NCI tumour cell line growth inhibition, 48 h
# Lookup of reported TGI keyed by entry
MEASURED PROPERTY: TGI

COMPOUND | MEASURED PROPERTY | ENDPOINT VALUE
O=C(CN(c1ccccc1)c1ccccc1)N1c2ccccc2C2C=CC=CC21 (stereo unspecified) | TGI | > 21.4 µM
CC(C(=O)N1C(=O)N(C(=O)C(C)C(O)c2ccccc2)C2CCCCC21)C(O)c1ccccc1 (stereo unspecified) | TGI | > 100 µM
CN(C)CCNCCN | TGI | > 100 µM
CCOC(=O)c1nc2ccc(C(F)(F)F)cc2nc1Oc1ccc(C#N)cc1 | TGI | > 100 µM
O=C(NCCCN(CCCCN(CCCNC(=O)C(F)(F)F)Cc1ccc2ccccc2c1)Cc1ccc2ccccc2c1)C(F)(F)F | TGI | 7.18 µM
O=[N+]([O-])c1ccc(/C=C/c2cc(-c3ccccc3)nc3ccc4ccccc4c23)cc1 | TGI | > 100 µM
COc1cccc(/C=N/[N-]C(=O)c2ccncc2)c1[O-].COc1cccc(/C=N/[N-]C(=O)c2ccncc2)c1[O-].[O]=[U](=[O])([OH2+])[OH2+] | TGI | > 100 µM
O=C(/C(=C\c1c(-c2ccccc2)[nH]c2ccccc12)S(=O)(=O)c1ccccc1)c1ccccc1 | TGI | > 100 µM
COC(=O)CN1c2nc(C#N)c(C#N)nc2N(CC(=O)OC)c2nc(C#N)c(C#N)nc21 | TGI | 6.66 µM
COC(=O)C(=O)C(C(C)=O)C(=O)NCc1ccc(OC)c(OC)c1 (stereo unspecified) | TGI | > 100 µM
O=C1CCCN1c1ccccc1I(=O)=O | TGI | > 100 µM
C#CCOc1cccc(Nc2ncnc3c(NC(=O)C=C)cccc23)c1 | TGI | > 100 µM
COc1cc2cc(Oc3ccc(NC(=O)c4cc(C(F)(F)F)cc(C(F)(F)F)c4)cc3)c(C)nc2cc1OC | TGI | > 50 µM
O=C1NCCS(=O)(=O)N[C@@H](CC2=CC=CCC2)C(=O)N2CCCC12 (stereo partly specified) | TGI | > 100 µM
COc1cc(/C=C\c2cc(OC)c(OC)c(OC)c2)cc(N/C=C\C(=O)c2c[nH]c3ccccc23)c1OC | TGI | 3.38 µM
Cc1cc2c([N+](=O)[O-])cc3c(c2o1)C(=O)C=CC3=O | TGI | > 76.4 µM

====

# System: MDA-MB-435
# TEST DESCRIPTION: NCI tumour cell line growth inhibition, 48 h
// TGI lookup, one value per entry
MEASURED PROPERTY: TGI (µM)

COMPOUND | COMPARATIVE SIGN | ENDPOINT VALUE
NCCNCC1CCNCC1 | > | 100
ClCCN(CCCl)c1ccc(CNc2ccccc2)cc1 | > | 100
Nc1cc2c(cc1Br)[nH]c(=O)c1ccccc12 | = | 3.57
CN(Cc1ccccc1)c1cc(=O)n(C)c(=O)[nH]1 | > | 100
CC(C)(C)[Si](C)(C)OC1[C@@H](CNC(=O)NC(=O)CCl)O[C@@H](n2cnc3c(N)ncnc32)[C@H]1O[Si](C)(C)C(C)(C)C (some centres not stated) | = | 1.56
C=CC(=O)N1CN(C(=O)C=C)CN(C(=O)C=C)C1 | = | 10.7
O=C1NCC(NC(=O)C(F)(F)F)c2c(Br)sc(Br)c21 (configuration not stated) | > | 100

====

# System: KM12 colon
# TEST DESCRIPTION: NCI tumour cell line growth inhibition, 48 h

COMPOUND | TGI
O=c1[nH]cnc2c1ncn2[C@@H]1C[C@@H]1CO | > 100 µM
O=c1[nH]cnc(NC2C=C(CO)C(O)C2O)c1[N+](=O)[O-] (stereo not drawn) | > 100 µM
C[C@@H](Cl)[C@H]1CCCN(Cc2ccc(Br)cc2)C1 | > 12.5 µM

====

# TGI values compiled below
# Test system: MDA-MB-435
# TEST DESCRIPTION: NCI tumour cell line growth inhibition, 48 h

COMPOUND | TGI
CCOC(=O)c1c(-c2ccccc2)c(-c2ccccc2)cn1C | > 10 µM
O=C1Nc2ccccc2/C1=C1\CCc2cc(O)ccc21 | > 25 µM
CC(=O)O/N=C/c1c2ccccc2cc2ccccc12 | > 100 µM
COc1cc(-c2cc(=O)c3cc4c(=O)cc(-c5cc(OC)c(OC)c(OC)c5)oc4cc3o2)cc(OC)c1OC | > 100 µM
COc1nc2ncc([C@@H](OC(C)=O)[C@@H](COC(C)=O)OC(C)=O)nc2c(=O)[nH]1 | > 100 µM
COC(c1ccc(C(C)(C)C)cc1)(c1ccc(C(C)(C)C)cc1)c1ccc(C(C)(C)C)cc1 | > 100 µM
O=[N+]([O-])c1ccc(/C=C/c2cc(-c3ccccc3)nc3ccc4ccccc4c23)cc1 | > 100 µM
O=C(O)C(SC1=NNC2(C(=O)N1)c1ccccc1-c1ccccc12)SC1=NNC2(C(=O)N1)c1ccccc1-c1ccccc12 | > 10 µM
COc1ccc(C(CC(=O)c2ccc3c(c2)OCO3)c2c(O)c3ccccc3oc2=O)cc1OC (stereo unspecified) | > 100 µM
CCCCn1cnc2c(c(CC#N)nn2-c2ccccc2)c1=N | > 100 µM
CCOC(=O)C1(C(=O)OCC)COS(=O)OC1 | > 100 µM
